# experimental-conditions: in ethyl acetate, 318.15 K
reported-metric: solubility (mole fraction)
Numbers only.

Look up solubility (mole fraction) for this compound: NC(N)=S
0.023

----------
# experimental-conditions: in acetonitrile, 318.15 K
reported-metric: solubility (mole fraction)
Give bare numbers.

Look up solubility (mole fraction) for this compound: NC(N)=S
0.00915

----------
# experimental-conditions: in n-butanol, 323.15 K
reported-metric: solubility (mole fraction)
Numbers only.

Look up solubility (mole fraction) for this molecule: NC(N)=S
0.0297

----------
# experimental-conditions: in benzene, 308.15 K
reported-metric: solubility (mole fraction)
Answers are plain numbers.

Look up solubility (mole fraction) for this molecule: NC(N)=S
0.00313

----------
# experimental-conditions: in n-propanol, 308.15 K
reported-metric: solubility (mole fraction)
One number for each entry.

Look up solubility (mole fraction) for this molecule: NC(N)=S
0.0265

----------
# experimental-conditions: in n-butanol, 318.15 K
reported-metric: solubility (mole fraction)

Look up solubility (mole fraction) for this compound: NC(N)=S
0.0273

----------
# experimental-conditions: in n-butanol, 333.15 K
reported-metric: solubility (mole fraction)
Answers are plain numbers.

Look up solubility (mole fraction) for this compound: NC(N)=S
0.0361

----------
# experimental-conditions: in chlorobenzene, 318.15 K
reported-metric: solubility (mole fraction)
Give bare numbers.

Look up solubility (mole fraction) for this molecule: NC(N)=S
0.00174

----------
# experimental-conditions: in m-xylene, 338.15 K
reported-metric: solubility (mole fraction)
Numbers only.

Look up solubility (mole fraction) for this compound: NC(N)=S
0.00485

----------
# experimental-conditions: in benzene, 338.15 K
reported-metric: solubility (mole fraction)
Answers are plain numbers.

Look up solubility (mole fraction) for this compound: NC(N)=S
0.00564

----------
# experimental-conditions: in methanol, 303.15 K
reported-metric: solubility (mole fraction)
Numbers only.

Look up solubility (mole fraction) for this molecule: NC(N)=S
0.0605

----------
# experimental-conditions: in toluene, 333.15 K
reported-metric: solubility (mole fraction)
Numbers only.

Look up solubility (mole fraction) for this molecule: NC(N)=S
0.00452

----------
# experimental-conditions: in chlorobenzene, 333.15 K
reported-metric: solubility (mole fraction)
One number for each entry.

Look up solubility (mole fraction) for this compound: NC(N)=S
0.0023

----------
# experimental-conditions: in m-xylene, 343.15 K
reported-metric: solubility (mole fraction)
One number for each entry.

Look up solubility (mole fraction) for this molecule: NC(N)=S
0.00556

----------
# experimental-conditions: in isopropanol, 333.15 K
reported-metric: solubility (mole fraction)

Look up solubility (mole fraction) for this molecule: NC(N)=S
0.049

----------
# experimental-conditions: in isopropanol, 338.15 K
reported-metric: solubility (mole fraction)
Answers are plain numbers.

Look up solubility (mole fraction) for this molecule: NC(N)=S
0.0534

----------
# experimental-conditions: in benzene, 313.15 K
reported-metric: solubility (mole fraction)
Answers are plain numbers.

Look up solubility (mole fraction) for this molecule: NC(N)=S
0.0034

----------
# experimental-conditions: in n-butanol, 313.15 K
reported-metric: solubility (mole fraction)
One number for each entry.

Look up solubility (mole fraction) for this compound: NC(N)=S
0.0248

----------
# experimental-conditions: in n-butanol, 308.15 K
reported-metric: solubility (mole fraction)
Answers are plain numbers.

Look up solubility (mole fraction) for this compound: NC(N)=S
0.0225

----------
# experimental-conditions: in ethanol, 308.15 K
reported-metric: solubility (mole fraction)
Numbers only.

Look up solubility (mole fraction) for this molecule: NC(N)=S
0.0322

----------
# experimental-conditions: in ethyl acetate, 323.15 K
reported-metric: solubility (mole fraction)
Give bare numbers.

Look up solubility (mole fraction) for this compound: NC(N)=S
0.0244

----------
# experimental-conditions: in ethyl acetate, 338.15 K
reported-metric: solubility (mole fraction)
One number for each entry.

Look up solubility (mole fraction) for this compound: NC(N)=S
0.0307

----------
# experimental-conditions: in ethyl acetate, 333.15 K
reported-metric: solubility (mole fraction)
One number for each entry.

Look up solubility (mole fraction) for this molecule: NC(N)=S
0.0286

----------
# experimental-conditions: in m-xylene, 303.15 K
reported-metric: solubility (mole fraction)
Answers are plain numbers.

Look up solubility (mole fraction) for this molecule: NC(N)=S
0.0022

----------
# experimental-conditions: in benzene, 323.15 K
reported-metric: solubility (mole fraction)
Give bare numbers.

Look up solubility (mole fraction) for this molecule: NC(N)=S
0.00395

----------
# experimental-conditions: in toluene, 308.15 K
reported-metric: solubility (mole fraction)
Give bare numbers.

Look up solubility (mole fraction) for this compound: NC(N)=S
0.00289

----------
# experimental-conditions: in n-propanol, 343.15 K
reported-metric: solubility (mole fraction)
Answers are plain numbers.

Look up solubility (mole fraction) for this molecule: NC(N)=S
0.0544

----------
# experimental-conditions: in acetonitrile, 308.15 K
reported-metric: solubility (mole fraction)
Numbers only.

Look up solubility (mole fraction) for this molecule: NC(N)=S
0.00805

----------
# experimental-conditions: in n-propanol, 328.15 K
reported-metric: solubility (mole fraction)
One number for each entry.

Look up solubility (mole fraction) for this molecule: NC(N)=S
0.0398

----------
# experimental-conditions: in toluene, 328.15 K
reported-metric: solubility (mole fraction)
One number for each entry.

Look up solubility (mole fraction) for this compound: NC(N)=S
0.00405

----------
# experimental-conditions: in m-xylene, 318.15 K
reported-metric: solubility (mole fraction)
Give bare numbers.

Look up solubility (mole fraction) for this molecule: NC(N)=S
0.00311

----------
# experimental-conditions: in acetonitrile, 333.15 K
reported-metric: solubility (mole fraction)
Numbers only.

Look up solubility (mole fraction) for this molecule: NC(N)=S
0.0108

----------
# experimental-conditions: in isopropanol, 328.15 K
reported-metric: solubility (mole fraction)
Give bare numbers.

Look up solubility (mole fraction) for this compound: NC(N)=S
0.0445

----------
# experimental-conditions: in n-butanol, 328.15 K
reported-metric: solubility (mole fraction)
One number for each entry.

Look up solubility (mole fraction) for this molecule: NC(N)=S
0.0332

----------
# experimental-conditions: in toluene, 318.15 K
reported-metric: solubility (mole fraction)
Answers are plain numbers.

Look up solubility (mole fraction) for this compound: NC(N)=S
0.00336

----------
# experimental-conditions: in isopropanol, 313.15 K
reported-metric: solubility (mole fraction)
Numbers only.

Look up solubility (mole fraction) for this compound: NC(N)=S
0.0325

----------
# experimental-conditions: in benzene, 328.15 K
reported-metric: solubility (mole fraction)
Numbers only.

Look up solubility (mole fraction) for this compound: NC(N)=S
0.00436

----------
# experimental-conditions: in ethanol, 343.15 K
reported-metric: solubility (mole fraction)

Look up solubility (mole fraction) for this compound: NC(N)=S
0.0751

----------
# experimental-conditions: in chlorobenzene, 323.15 K
reported-metric: solubility (mole fraction)
Numbers only.

Look up solubility (mole fraction) for this molecule: NC(N)=S
0.00189

----------
# experimental-conditions: in n-butanol, 338.15 K
reported-metric: solubility (mole fraction)
Give bare numbers.

Look up solubility (mole fraction) for this compound: NC(N)=S
0.0396

----------
# experimental-conditions: in methanol, 333.15 K
reported-metric: solubility (mole fraction)
One number for each entry.

Look up solubility (mole fraction) for this compound: NC(N)=S
0.123

----------
# experimental-conditions: in n-octanol, 328.15 K
reported-metric: solubility (mole fraction)
Numbers only.

Look up solubility (mole fraction) for this compound: NC(N)=S
0.0394

----------
# experimental-conditions: in ethanol, 303.15 K
reported-metric: solubility (mole fraction)
One number for each entry.

Look up solubility (mole fraction) for this molecule: NC(N)=S
0.0283

----------
# experimental-conditions: in chlorobenzene, 308.15 K
reported-metric: solubility (mole fraction)

Look up solubility (mole fraction) for this molecule: NC(N)=S
0.00144

----------
# experimental-conditions: in chlorobenzene, 328.15 K
reported-metric: solubility (mole fraction)

Look up solubility (mole fraction) for this compound: NC(N)=S
0.00211

----------
# experimental-conditions: in ethanol, 333.15 K
reported-metric: solubility (mole fraction)
Answers are plain numbers.

Look up solubility (mole fraction) for this compound: NC(N)=S
0.0592

----------
# experimental-conditions: in ethanol, 318.15 K
reported-metric: solubility (mole fraction)
Numbers only.

Look up solubility (mole fraction) for this compound: NC(N)=S
0.0401

----------
# experimental-conditions: in ethanol, 338.15 K
reported-metric: solubility (mole fraction)
One number for each entry.

Look up solubility (mole fraction) for this compound: NC(N)=S
0.0662

----------
# experimental-conditions: in m-xylene, 323.15 K
reported-metric: solubility (mole fraction)
Numbers only.

Look up solubility (mole fraction) for this molecule: NC(N)=S
0.00342

----------
# experimental-conditions: in chlorobenzene, 338.15 K
reported-metric: solubility (mole fraction)
Give bare numbers.

Look up solubility (mole fraction) for this compound: NC(N)=S
0.00256

----------
# experimental-conditions: in n-octanol, 323.15 K
reported-metric: solubility (mole fraction)
Give bare numbers.

Look up solubility (mole fraction) for this molecule: NC(N)=S
0.0354
